system: TK-10 renal; test: NCI-60 one-dose screen, 48 h; conditions: 10 µM unless noted
The panel holds about 83,000 compounds, 20% with a hit somewhere; the sample as a whole holds those more often. Activity calls are given as the source filed them. The calls were made as follows: active = growth percent below 10; inactive = the rest.
Possible outcomes: active, inactive

chemicalstructure=Fc1ccc(Nc2nc(Nc3ccc(-c4nc5ccccc5[nH]4)cc3)c3cn[nH]c3n2)cc1 grouplabel=inactive
chemicalstructure=CCCCCCNCc1cc(C(C)(C)C)cc(CNCCCCCC)c1O grouplabel=active
chemicalstructure=CCCCCCCC/C=C/CCCCCCCC1=NCC[N+]1(CCO)CCO grouplabel=inactive
chemicalstructure=O=C1C=CC(=Nc2cc(Br)c(O)c(Br)c2)C=C1 grouplabel=inactive
chemicalstructure=CCCCCCNC(=O)c1cc(NCc2cc(O)ccc2O)ccc1O grouplabel=inactive
chemicalstructure=COc1ccc(-c2nc3sccn3c2/C=C/C(=O)c2c[nH]c3ccccc23)cc1 grouplabel=inactive
chemicalstructure=O=C(NCCN1CCC(O)CC1)c1cc2c(o1)C(=O)c1ccccc1C2=O grouplabel=active
chemicalstructure=Cc1c2c(cn1Cc1ccccc1)CCc1cn[nH]c1-2 grouplabel=inactive
chemicalstructure=COc1ccc(OC)c(/C=C2\COc3ccc(O)c(O)c3C2=O)c1 grouplabel=inactive
chemicalstructure=C=CC(=O)Nc1cccc(C)c1Nc1cc(-c2cccnc2Cc2c(C)c(OC)cc(OC)c2C)ncn1 grouplabel=active
chemicalstructure=COc1cccc(/C=C2\COc3ccc(O)cc3C2=O)c1OC grouplabel=inactive
